These measurements were taken from patent US8188059B2.

Exercise: for every item that follows, state its recorded % Inhibition of PTP1B mRNA.
# Tested on: PTP1B mRNA
# testName: Dose response for human PTP1B in HuVEC cells, Primer Probe Set 198 (Example 25, Table 86)
# Assay type: cell-based
# conditionContext: PPS 198, 1.11 nM
Strand notation (5' to 3'): a small letter for the sugar, then the base; units joined by * are phosphorothioate-linked, units joined directly phosphodiester-linked; [ ] holds rarer units or linkages, { } end groups; capitals alone tell only the bases. e = 2'-O-(2-methoxyethyl) (MOE); [5mC] = 5-methylcytosine; d = 2'-deoxy (DNA)
Give a bare numeral; the unit % is implied.

# input // lookup % Inhibition of PTP1B mRNA for 398105 (antisense eT*eG*d[5mC]*dA*d[5mC]*dA*dG*dG*d[5mC]*dA*dG*dG*eT*eT) [compound 398105]
# output 0

# input // lookup % Inhibition of PTP1B mRNA for 399173 (antisense eA*eT*dG*d[5mC]*dT*dA*dG*dT*dG*d[5mC]*dA*d[5mC]*eT*eA) [compound 399173]
# output 0

# input // lookup % Inhibition of PTP1B mRNA for 398120 (antisense eG*eT*dT*d[5mC]*dA*dA*dG*d[5mC]*dG*dG*d[5mC]*d[5mC]*eT*eA) [compound 398120]
# output 0

# input // lookup % Inhibition of PTP1B mRNA for 399301 (antisense eG*eT*dG*dT*dG*d[5mC]*dA*d[5mC]*dA*d[5mC]*dA*dG*e[5mC]*eT) [compound 399301]
# output 8

# input // lookup % Inhibition of PTP1B mRNA for 399096 (antisense eT*eG*d[5mC]*dT*d[5mC]*dG*dA*dA*d[5mC]*dT*d[5mC]*d[5mC]*eT*eT) [compound 399096]
# output 3

# input // lookup % Inhibition of PTP1B mRNA for 398173 (antisense e[5mC]*dA*dG*d[5mC]*d[5mC]*dT*dG*dG*dG*d[5mC]*dA*e[5mC]) [compound 398173]
# output 0
